Assay: activity coefficient (dimensionless); of the first substance listed, at infinite dilution; xn = mol fraction of the nth substance listed
Settings: 348.15 K; 101.33 kPa; Liquid; Chromatography; x1 = 0
The following compounds are listed with their measured activity coefficient values.
The answer should be a number; do not append a unit.

Sample records with activity coefficient:
COMPOUND | activity coefficient
CCOCC [diethyl ether] + CCCCCCCCCCCCCC[P+](CCCCCC)(CCCCCC)CCCCCC.N#CC(=C=[N-])C#N | 1.01
C=CCCCCCC [oct-1-ene] + CCCCCCCCCCCCCC[P+](CCCCCC)(CCCCCC)CCCCCC.N#CC(=C=[N-])C#N | 1.88
CCC(C)(C)C [2,2-dimethylbutane] + CCCCCCCCCCCCCC[P+](CCCCCC)(CCCCCC)CCCCCC.N#CC(=C=[N-])C#N | 1.89

### Prompt Suppose we examine the compound CCC(C)CC [3-methylpentane] + CCCCCCCCCCCCCC[P+](CCCCCC)(CCCCCC)CCCCCC.N#CC(=C=[N-])C#N ; what activity coefficient value has been reported?
### Response 1.75

### Prompt Suppose we examine the compound C1=CCCCC1 [cyclohexene] + CCCCCCCCCCCCCC[P+](CCCCCC)(CCCCCC)CCCCCC.N#CC(=C=[N-])C#N ; what activity coefficient value has been reported?
### Response 0.938

### Prompt Suppose we examine the compound CC(C)=O [acetone] + CCCCCCCCCCCCCC[P+](CCCCCC)(CCCCCC)CCCCCC.N#CC(=C=[N-])C#N ; what activity coefficient value has been reported?
### Response 0.477

====

Assay: activity coefficient (dimensionless); of the first substance listed, at infinite dilution; xn = mol fraction of the nth substance listed
Details: 348.15 K; 101.33 kPa; Liquid; Chromatography; x1 = 0
Hi! Could you tag entries with activity coefficient below 1 as class 1, and those at or above as class 0? Much appreciated.

COMPOUND | LABEL VALUE
CCCO [propan-1-ol] + CCCCCCCCCCCCCC[P+](CCCCCC)(CCCCCC)CCCCCC.N#CC(=C=[N-])C#N | class 1
CCCCCCCCCC [decane] + CCCCCCCCCCCCCC[P+](CCCCCC)(CCCCCC)CCCCCC.N#CC(=C=[N-])C#N | class 0
CC(C)(C)O [2-methylpropan-2-ol] + CCCCCCCCCCCCCC[P+](CCCCCC)(CCCCCC)CCCCCC.N#CC(=C=[N-])C#N | class 1
c1ccccc1 [benzene] + CCCCCCCCCCCCCC[P+](CCCCCC)(CCCCCC)CCCCCC.N#CC(=C=[N-])C#N | class 1
C#CCCCCCC [1-octyne] + CCCCCCCCCCCCCC[P+](CCCCCC)(CCCCCC)CCCCCC.N#CC(=C=[N-])C#N | class 0
CCCCCCCCC [nonane] + CCCCCCCCCCCCCC[P+](CCCCCC)(CCCCCC)CCCCCC.N#CC(=C=[N-])C#N | class 0
CC(C)CC(C)(C)C [2,2,4-trimethylpentane] + CCCCCCCCCCCCCC[P+](CCCCCC)(CCCCCC)CCCCCC.N#CC(=C=[N-])C#N | class 0
CCCCCC [hexane] + CCCCCCCCCCCCCC[P+](CCCCCC)(CCCCCC)CCCCCC.N#CC(=C=[N-])C#N | class 0
CCOC(C)=O [ethyl acetate] + CCCCCCCCCCCCCC[P+](CCCCCC)(CCCCCC)CCCCCC.N#CC(=C=[N-])C#N | class 1
CCCCO [butan-1-ol] + CCCCCCCCCCCCCC[P+](CCCCCC)(CCCCCC)CCCCCC.N#CC(=C=[N-])C#N | class 1

### Prompt Determine if CCCOCCC [dipropyl ether] + CCCCCCCCCCCCCC[P+](CCCCCC)(CCCCCC)CCCCCC.N#CC(=C=[N-])C#N shows activity coefficient strictly lower than 1.
### Response class 0

### Prompt Determine if C=C(C)c1ccccc1 [(1-methylethenyl)benzene] + CCCCCCCCCCCCCC[P+](CCCCCC)(CCCCCC)CCCCCC.N#CC(=C=[N-])C#N shows activity coefficient strictly lower than 1.
### Response class 1

### Prompt Determine if C=CCCCC [hex-1-ene] + CCCCCCCCCCCCCC[P+](CCCCCC)(CCCCCC)CCCCCC.N#CC(=C=[N-])C#N shows activity coefficient strictly lower than 1.
### Response class 0

====

Assay: activity coefficient (dimensionless); of the first substance listed, at infinite dilution; xn = mol fraction of the nth substance listed
Settings: 338.15 K; 101.33 kPa; Liquid; Chromatography; x1 = 0
PARAMETER MEASURED: activity coefficient
The answer should be a number; do not append a unit.

Sample records with activity coefficient:
COMPOUND | MEASUREMENT
CC(C)OC(C)C [diisopropyl ether] + CCCCCCCCCCCCCC[P+](CCCCCC)(CCCCCC)CCCCCC.N#CC(=C=[N-])C#N | 1.54
C1CCCCCCC1 [cyclooctane] + CCCCCCCCCCCCCC[P+](CCCCCC)(CCCCCC)CCCCCC.N#CC(=C=[N-])C#N | 1.33
CCCC(=O)OC [methyl butanoate] + CCCCCCCCCCCCCC[P+](CCCCCC)(CCCCCC)CCCCCC.N#CC(=C=[N-])C#N | 0.683
CC(C)(C)O [2-methylpropan-2-ol] + CCCCCCCCCCCCCC[P+](CCCCCC)(CCCCCC)CCCCCC.N#CC(=C=[N-])C#N | 0.503
C1=CCCCC1 [cyclohexene] + CCCCCCCCCCCCCC[P+](CCCCCC)(CCCCCC)CCCCCC.N#CC(=C=[N-])C#N | 0.922
CC(C)CC(C)(C)C [2,2,4-trimethylpentane] + CCCCCCCCCCCCCC[P+](CCCCCC)(CCCCCC)CCCCCC.N#CC(=C=[N-])C#N | 2.25

### Prompt Suppose we examine the compound Cc1ccccc1C [1,2-dimethylbenzene] + CCCCCCCCCCCCCC[P+](CCCCCC)(CCCCCC)CCCCCC.N#CC(=C=[N-])C#N ; what activity coefficient value has been reported?
### Response 0.677

====

Test: activity coefficient (dimensionless); of the first substance listed, at infinite dilution; xn = mol fraction of the nth substance listed
Conditions: 358.15 K; 101.33 kPa; Liquid; Chromatography; x1 = 0
Please use Y whenever activity coefficient is not below 0.7, and N whenever it is.

COMPOUND | LABEL VALUE
COC(C)(C)C [2-methoxy-2-methylpropane] + CCCCCCCCCCCCCC[P+](CCCCCC)(CCCCCC)CCCCCC.N#CC(=C=[N-])C#N | Y

### Prompt Is reported activity coefficient greater than or equal to 0.7 here: CCOC(C)=O [ethyl acetate] + CCCCCCCCCCCCCC[P+](CCCCCC)(CCCCCC)CCCCCC.N#CC(=C=[N-])C#N
### Response Y

### Prompt Is reported activity coefficient greater than or equal to 0.7 here: Cc1ccccc1C [1,2-dimethylbenzene] + CCCCCCCCCCCCCC[P+](CCCCCC)(CCCCCC)CCCCCC.N#CC(=C=[N-])C#N
### Response Y

====

The following molecules are listed with their measured activity coefficient values.
Assay: activity coefficient (dimensionless); of the first substance listed, at infinite dilution; xn = mol fraction of the nth substance listed
Details: 338.15 K; 101.33 kPa; Liquid; Chromatography; x1 = 0
The answer should be a number; do not append a unit.

Sample records with activity coefficient:
MOLECULE | activity coefficient
CCCC=O [butanal] + CCCCCCCCCCCCCC[P+](CCCCCC)(CCCCCC)CCCCCC.N#CC(=C=[N-])C#N | 0.477
c1ccncc1 [pyridine] + CCCCCCCCCCCCCC[P+](CCCCCC)(CCCCCC)CCCCCC.N#CC(=C=[N-])C#N | 0.401
CC1CCCCC1 [methylcyclohexane] + CCCCCCCCCCCCCC[P+](CCCCCC)(CCCCCC)CCCCCC.N#CC(=C=[N-])C#N | 1.33
CCC(C)CC [3-methylpentane] + CCCCCCCCCCCCCC[P+](CCCCCC)(CCCCCC)CCCCCC.N#CC(=C=[N-])C#N | 1.72
CCCCCC [hexane] + CCCCCCCCCCCCCC[P+](CCCCCC)(CCCCCC)CCCCCC.N#CC(=C=[N-])C#N | 1.81

### Prompt Suppose we examine the molecule CC(C)=O [acetone] + CCCCCCCCCCCCCC[P+](CCCCCC)(CCCCCC)CCCCCC.N#CC(=C=[N-])C#N ; what activity coefficient value has been reported?
### Response 0.466

### Prompt Suppose we examine the molecule C1CCCCCC1 [cycloheptane] + CCCCCCCCCCCCCC[P+](CCCCCC)(CCCCCC)CCCCCC.N#CC(=C=[N-])C#N ; what activity coefficient value has been reported?
### Response 1.22

====

Test: activity coefficient (dimensionless); of the first substance listed, at infinite dilution; xn = mol fraction of the nth substance listed
Settings: 348.15 K; 101.33 kPa; Liquid; Chromatography; x1 = 0
PARAMETER MEASURED: activity coefficient
The answer should be a number; do not append a unit.

Sample records with activity coefficient:
COMPOUND | MEASUREMENT
C1COCCO1 [1,4-dioxane] + CCCCCCCCCCCCCC[P+](CCCCCC)(CCCCCC)CCCCCC.N#CC(=C=[N-])C#N | 0.608
C=CCCCCCCCC [1-decene] + CCCCCCCCCCCCCC[P+](CCCCCC)(CCCCCC)CCCCCC.N#CC(=C=[N-])C#N | 2.41
CCCC(C)=O [pentan-2-one] + CCCCCCCCCCCCCC[P+](CCCCCC)(CCCCCC)CCCCCC.N#CC(=C=[N-])C#N | 0.477
CCO [ethanol] + CCCCCCCCCCCCCC[P+](CCCCCC)(CCCCCC)CCCCCC.N#CC(=C=[N-])C#N | 0.477
COC(C)(C)C [2-methoxy-2-methylpropane] + CCCCCCCCCCCCCC[P+](CCCCCC)(CCCCCC)CCCCCC.N#CC(=C=[N-])C#N | 1.02
CCc1ccccc1 [ethylbenzene] + CCCCCCCCCCCCCC[P+](CCCCCC)(CCCCCC)CCCCCC.N#CC(=C=[N-])C#N | 0.756
c1ccncc1 [pyridine] + CCCCCCCCCCCCCC[P+](CCCCCC)(CCCCCC)CCCCCC.N#CC(=C=[N-])C#N | 0.413
CC#N [acetonitrile] + CCCCCCCCCCCCCC[P+](CCCCCC)(CCCCCC)CCCCCC.N#CC(=C=[N-])C#N | 0.669
C#CCCC [1-pentyne] + CCCCCCCCCCCCCC[P+](CCCCCC)(CCCCCC)CCCCCC.N#CC(=C=[N-])C#N | 0.832
CCCCCCC [heptane] + CCCCCCCCCCCCCC[P+](CCCCCC)(CCCCCC)CCCCCC.N#CC(=C=[N-])C#N | 2.08

### Prompt Suppose we examine the compound c1ccsc1 [thiophene] + CCCCCCCCCCCCCC[P+](CCCCCC)(CCCCCC)CCCCCC.N#CC(=C=[N-])C#N ; what activity coefficient value has been reported?
### Response 0.445

### Prompt Suppose we examine the compound CCCCCCCC [octane] + CCCCCCCCCCCCCC[P+](CCCCCC)(CCCCCC)CCCCCC.N#CC(=C=[N-])C#N ; what activity coefficient value has been reported?
### Response 2.37

### Prompt Suppose we examine the compound C=Cc1ccccc1 [styrene] + CCCCCCCCCCCCCC[P+](CCCCCC)(CCCCCC)CCCCCC.N#CC(=C=[N-])C#N ; what activity coefficient value has been reported?
### Response 0.544

### Prompt Suppose we examine the compound CCCCC [pentane] + CCCCCCCCCCCCCC[P+](CCCCCC)(CCCCCC)CCCCCC.N#CC(=C=[N-])C#N ; what activity coefficient value has been reported?
### Response 1.64

### Prompt Suppose we examine the compound C=CCCC [1-pentene] + CCCCCCCCCCCCCC[P+](CCCCCC)(CCCCCC)CCCCCC.N#CC(=C=[N-])C#N ; what activity coefficient value has been reported?
### Response 1.3
